B1: tRNA (parent)
chain: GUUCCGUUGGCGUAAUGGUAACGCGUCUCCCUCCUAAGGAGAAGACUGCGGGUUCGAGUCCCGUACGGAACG

variants of: B1; assay: yeast fitness relative to wild type (ratio to wild type); higher = fitter; tRNA-Arg(CCU), competitive growth, 37 C, YPD
This sample holds only a part of the variants without activity.
yeast fitness overview
QUANTITY_NAME: yeast fitness

INSERT INTO assay_data (sequence_code, quantity_name, endpoint_result) VALUES
  ('GUUCCGUUGGCGUAAAGGUAUCGAGUCUCCCUCCUAAGGAGAAGACUGCGGAUUCGAGUCCCGUACGGAACG [U16A A21U C24A G52A]', 'yeast fitness', '≤ 0.5'),
  ('GUUCCGUUGGCGUAACGGUAACGCGUCUCCCCCCUAAGCAGAAGACUGCGGGUUCGAGUCCCGUACGGAACG [U16C U32C G39C]', 'yeast fitness', '≤ 0.5'),
  ('GUUCCGUUGGAGUAAUGGUAACGCGUCUCCCUCGUAAGGAGAAGACUGCGGGUUCGAGUCCCGUACGGAACG [C11A C34G]', 'yeast fitness', '≤ 0.5'),
  ('GUUCCGUUGGCGUAAUGGUAACGCGUCUCCCUCCUAAGGAGAAGACUGCAGGUUCGAGUCCCGUACGGACCG [G50A A70C]', 'yeast fitness', 0.823),
  ('GUUCCAUUGGCGUAAUGGUAACGCGUCUCCCUCCUAAGGAGAAGACUGCGGGUUCGAGUCCCCUACGGAACG [G6A G63C]', 'yeast fitness', 0.727),
  ('GUUCCGUUGGCGUAAGGGUAACGCGUCUCCCUCCUAAGGAGAAGUCUGCGGGUCCGAGUCCCGAACGGAACG [U16G A45U U54C U64A]', 'yeast fitness', '≤ 0.5'),
  ('GUUCCGCUGGCGUAAUGGUAACGCGUCUCCCUCCUAAGGAGAAGACUGCGGGUUCGAGUCCCGUACGGGACG [U7C A69G]', 'yeast fitness', 0.817),
  ('GUUCCAUUGGCGUAAAGGUAACGCGUCUCCCUGCUUAGGAGAAGACUGCGGGUUCGAGUCCCGUACGGAACG [G6A U16A C33G A36U]', 'yeast fitness', '≤ 0.5'),
  ('GAUCCGUUGGCGUAAUGGUAGCGCGUCUUCCUCCUAAGGUGAAGACUGCGGGUUCGAGUCCCGUACGGAACG [U2A A21G C29U A40U]', 'yeast fitness', 0.57),
  ('GUUCCGUUGGCGUACUAAUAACGCGUCUCCCUCCUCAGGAGAAGACUGCGGGUUUGAGUCCCGUACGGAACG [A15C G17A G18A A36C C55U]', 'yeast fitness', '≤ 0.5'),
  ('GUUUCGUUGGGGUAAUGGUAACGCGUCUCCCUCUUAAGGAGAAGACUGCGGGUUCGAGUCCCGUACGGAACG [C4U C11G C34U]', 'yeast fitness', 0.551),
  ('GUUCCGUUGGCGUGAUGGUACCGCGUCUCGCUCCUAAGGAGAAGACUGCGGGUUCGAGUCCCGUACGGAACG [A14G A21C C30G]', 'yeast fitness', '≤ 0.5'),
  ('GUUCCAUUGGCGUAAUGGUAACGCGUCUCCCUCCUAAGGAGCAGACUGCGGGUUCGAGUCCCGUACGGAGCG [G6A A42C A70G]', 'yeast fitness', '≤ 0.5'),
  ('GUUCCGUUCGCGUAACGGUAACGCGUCUCUCUCCUAAGGAGAAGACUGCGGGUUCGAGAGCCGUACGGAACG [G9C U16C C30U U59A C60G]', 'yeast fitness', '≤ 0.5');
